- target_or_system: Bfl-1 (Homo sapiens)
- Construct: myc- Bfl-1 SPOT array & FP; made in house
- Sequence (Q16548 with tags, fused parts or gaps): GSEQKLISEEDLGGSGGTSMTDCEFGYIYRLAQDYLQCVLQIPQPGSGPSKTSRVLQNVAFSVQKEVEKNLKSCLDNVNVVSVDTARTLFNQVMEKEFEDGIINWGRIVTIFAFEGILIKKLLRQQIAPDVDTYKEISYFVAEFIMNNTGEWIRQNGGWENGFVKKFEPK
- method_notes: Fluorescence polarization direct binding
- condition_details: FP direct binding; 10 nM FAM-labeled peptide, receptor titrated; 25°C, pH 7.8; fit of all replicate titrations; X+number in a cell = highest concentration (nM) measured with no binding detected, given here as >; SPNS1 fit to raw fluorescence; read-out: Best-fit KD, Bfl-1
No end group written: not given here.
test_readout: Kd

>  <substance>
APYYLSRNLKQQADIIFMPYNYL-NH2 [RTEL1]

>  <target_or_system>
Bfl-1 (Homo sapiens)

>  <test_result>
> 4000 nM

$$$$
>  <substance>
RYRHGAPAEQLRHLADMLTTKWATLQ-NH2 [PLEKHH1]

>  <target_or_system>
Bfl-1 (Homo sapiens)

>  <test_result>
> 5680 nM

$$$$
>  <substance>
AWGKFGGAFARYADEMKEIQERQ-NH2 [PURB]

>  <target_or_system>
Bfl-1 (Homo sapiens)

>  <test_result>
> 4670 nM

$$$$
>  <substance>
SYMVLAPVFGYLGDRYNRKYLMA-NH2 [SPNS1]

>  <target_or_system>
Bfl-1 (Homo sapiens)

>  <test_result>
278 nM

$$$$
>  <substance>
GSGAWGLLLRRVGDDVLVHLLAR-NH2 [TERT]

>  <target_or_system>
Bfl-1 (Homo sapiens)

>  <test_result>
99 nM

$$$$
>  <substance>
FTGNNTAVQELKRVSEQFTATFRRKA-NH2 [TUBB4Q]

>  <target_or_system>
Bfl-1 (Homo sapiens)

>  <test_result>
> 4670 nM

$$$$
>  <substance>
LSDGLPVHLANIADELTQKKKMF-NH2 [AGBL2]

>  <target_or_system>
Bfl-1 (Homo sapiens)

>  <test_result>
> 4670 nM

$$$$
>  <substance>
ATRRLSGFLRTLADRLEGTKELL-NH2 [MINA]

>  <target_or_system>
Bfl-1 (Homo sapiens)

>  <test_result>
1130 nM

$$$$
>  <substance>
KKMTLSEIYRWIADNFPYYKNAG-NH2 [FOXJ2]

>  <target_or_system>
Bfl-1 (Homo sapiens)

>  <test_result>
> 3370 nM

$$$$
>  <substance>
ATKRETAATFLKKVAKEFGFQNNGFS-NH2 [NPLOC4]

>  <target_or_system>
Bfl-1 (Homo sapiens)

>  <test_result>
> 4670 nM

$$$$
>  <substance>
SKFVILSAHKLVFIGDTLSRQAKAAD-NH2 [BCAR1]

>  <target_or_system>
Bfl-1 (Homo sapiens)

>  <test_result>
4680 nM

$$$$
>  <substance>
RVEQMAIQIKEVGDRVNYIKRSL-NH2 [TRPM7]

>  <target_or_system>
Bfl-1 (Homo sapiens)

>  <test_result>
1900 nM

$$$$
>  <substance>
EVLAGPLAQRLSHIAEDVGRLVKKSR-NH2 [ARHGAP4]

>  <target_or_system>
Bfl-1 (Homo sapiens)

>  <test_result>
> 5590 nM

$$$$

Where do these numbers come from? They come from paper PMC4072508.
